Values were extracted from ChEMBL document CHEMBL5303573.

# stated conditions: bacteroides eggerthii, 12 h, 2 µM
# Description: The drug is tested on Bacteroides eggerthii strain: DSM20697 for biotransformation. The drug concentrations were measured before and after a 12-h incubation by liquid-chromatography-coupled mass spectrometry (LC–MS)
parameter measured: Bacterial Biotransformation

molecule: CC(C)NCC(O)COc1ccc(CC(N)=O)cc1 (centres undefined)
parameter measured: Bacterial Biotransformation
value observed: Compound NOT metabolized
//
molecule: CCN(CC)CCNC(=O)c1cc(Cl)c(N)cc1OC [METOCLOPRAMIDE]
parameter measured: Bacterial Biotransformation
value observed: Compound NOT metabolized
//
molecule: CCCN1C[C@H](CSC)C[C@@H]2c3cccc4[nH]cc(c34)C[C@H]21.CS(=O)(=O)O [PERGOLIDE MESYLATE]
parameter measured: Bacterial Biotransformation
value observed: Compound NOT metabolized
//
molecule: NC(=O)N1c2ccccc2CC(=O)c2ccccc21 [OXCARBAZEPINE]
parameter measured: Bacterial Biotransformation
value observed: Compound NOT metabolized
//
molecule: CN1CCN(CC/C=C2/c3ccccc3Sc3ccc(S(=O)(=O)N(C)C)cc32)CC1
parameter measured: Bacterial Biotransformation
value observed: Compound metabolized
//
molecule: O=C1C(CC[S+]([O-])c2ccccc2)C(=O)N(c2ccccc2)N1c1ccccc1 (centres undefined)
parameter measured: Bacterial Biotransformation
value observed: Compound NOT metabolized
//
molecule: COc1cc2nc(N(C)CCCNC(=O)C3CCCO3)nc(N)c2cc1OC (centres undefined)
parameter measured: Bacterial Biotransformation
value observed: Compound NOT metabolized
//
molecule: CC(=O)Nc1ccc(OC(C)=O)cc1 [DIACETAMATE]
parameter measured: Bacterial Biotransformation
value observed: Compound metabolized
//
molecule: CCOC(=O)[C@H](CCc1ccccc1)N[C@H]1CCc2ccccc2N(CC(=O)O)C1=O
parameter measured: Bacterial Biotransformation
value observed: Compound metabolized

* * *

# stated conditions: bacteroides thetaiotaomicron, 12 h, 2 µM
# Description: The drug is tested on Bacteroides thetaiotaomicron strain: VPI-5482 for biotransformation. The drug concentrations were measured before and after a 12-h incubation by liquid-chromatography-coupled mass spectrometry (LC–MS)

compound: OCCN(CCO)c1nc(N2CCCCC2)c2nc(N(CCO)CCO)nc(N3CCCCC3)c2n1 [DIPYRIDAMOLE]
Bacterial Biotransformation: Compound NOT metabolized
--
compound: CNNCc1ccc(C(=O)NC(C)C)cc1 [PROCARBAZINE]
Bacterial Biotransformation: Compound NOT metabolized
--
compound: CC(C)(C#N)c1cc(Cn2cncn2)cc(C(C)(C)C#N)c1 [ANASTROZOLE]
Bacterial Biotransformation: Compound metabolized
--
compound: O=C(NCc1ccccc1)OCCO [BURAMATE]
Bacterial Biotransformation: Compound NOT metabolized
--
compound: O=C([O-])C[C@H](O)C[C@H](O)/C=C/c1c(C2CC2)nc2ccccc2c1-c1ccc(F)cc1.O=C([O-])C[C@H](O)C[C@H](O)/C=C/c1c(C2CC2)nc2ccccc2c1-c1ccc(F)cc1.[Ca+2] [PITAVASTATIN CALCIUM]
Bacterial Biotransformation: Compound NOT metabolized
--
compound: COc1ccc(/C=C/C(=O)Nc2ccccc2C(=O)O)cc1OC
Bacterial Biotransformation: Compound NOT metabolized
--
compound: CN1CCc2cccc3c2[C@H]1Cc1ccc(O)c(O)c1-3 [APOMORPHINE]
Bacterial Biotransformation: Compound NOT metabolized
--
compound: COc1ccccc1OCC(O)CN1CCN(CC(=O)Nc2c(C)cccc2C)CC1 (stereo not given) [RANOLAZINE]
Bacterial Biotransformation: Compound NOT metabolized
--
compound: COc1cc2c(c(OC)c1OC)-c1ccc(OC)c(=O)cc1[C@@H](NC(C)=O)CC2 [COLCHICINE]
Bacterial Biotransformation: Compound metabolized
--
compound: c1ccc([C@H]2CN3CCSC3=N2)cc1 [LEVAMISOLE]
Bacterial Biotransformation: Compound metabolized

* * *

# stated conditions: anaerostipes sp., 12 h, 2 µM
# Description: The drug is tested on Anaerostipes sp. strain: fecal isolate for biotransformation. The drug concentrations were measured before and after a 12-h incubation by liquid-chromatography-coupled mass spectrometry (LC–MS)

compound: O=P(O)(O)O.c1ccc(CN(CC2=NCCN2)c2ccccc2)cc1 [ANTAZOLINE PHOSPHATE]
Bacterial Biotransformation: Compound NOT metabolized
//
compound: Cc1ccc(/C(=C\CN2CCCC2)c2ccccn2)cc1
Bacterial Biotransformation: Compound NOT metabolized
//
compound: C=CCN1CC[C@]23c4c5ccc(O)c4O[C@H]2C(=O)CC[C@@]3(O)[C@H]1C5
Bacterial Biotransformation: Compound NOT metabolized
//
compound: COc1ccnc(C[S+]([O-])c2nc3ccc(OC(F)F)cc3[nH]2)c1OC (centres undefined)
Bacterial Biotransformation: Compound metabolized
//
compound: CCc1nn(CCCN2CCN(c3cccc(Cl)c3)CC2)c(=O)n1CCOc1ccccc1
Bacterial Biotransformation: Compound NOT metabolized
//
compound: Cc1ccc(S(=O)(=O)NC(=O)NN2CCCCCC2)cc1 [TOLAZAMIDE]
Bacterial Biotransformation: Compound NOT metabolized
//
compound: CNCCC(Oc1ccc(C(F)(F)F)cc1)c1ccccc1 (centres undefined)
Bacterial Biotransformation: Compound metabolized
//
compound: CO[C@]12C[C@@H](COC(=O)c3cncc(Br)c3)CN(C)[C@@H]1Cc1cn(C)c3cccc2c13
Bacterial Biotransformation: Compound NOT metabolized
//
compound: COc1ccc2c(c1)c(CC(=O)O)c(C)n2C(=O)c1ccc(Cl)cc1
Bacterial Biotransformation: Compound metabolized
//
compound: CCc1cccc2c3c([nH]c12)C(CC)(CC(=O)O)OCC3 (centres undefined)
Bacterial Biotransformation: Compound NOT metabolized
//
compound: CCN(CC)CCOC(=O)C(Cc1cccc2ccccc12)CC1CCCO1.O=C(O)C(=O)O (centres undefined) [NAFRONYL OXALATE]
Bacterial Biotransformation: Compound NOT metabolized
//
compound: CC12CC3CC(C)(C1)CC(N)(C3)C2 [MEMANTINE]
Bacterial Biotransformation: Compound NOT metabolized
//
compound: CC(NC(C)(C)C)C(=O)c1cccc(Cl)c1 (centres undefined)
Bacterial Biotransformation: Compound NOT metabolized
//
compound: OCCN(CCO)c1nc(N2CCCCC2)c2nc(N(CCO)CCO)nc(N3CCCCC3)c2n1
Bacterial Biotransformation: Compound NOT metabolized
//
compound: C[C@]12C=CC(=O)C=C1CC[C@@H]1[C@@H]2C(=O)C[C@@]2(C)[C@H]1CC[C@]2(O)C(=O)CO
Bacterial Biotransformation: Compound NOT metabolized
//
compound: CN1CCC(=C2c3ccccc3CC(=O)c3sccc32)CC1.O=C(O)/C=C/C(=O)O [KETOTIFEN FUMARATE]
Bacterial Biotransformation: Compound NOT metabolized
//
compound: C#C[C@]1(OC(C)=O)CC[C@H]2[C@@H]3CCC4=C[C@@H](OC(C)=O)CC[C@@H]4[C@H]3CC[C@@]21C [ETHYNODIOL DIACETATE]
Bacterial Biotransformation: Compound NOT metabolized
//
compound: COc1cc2nc(N(C)CCCNC(=O)C3CCCO3)nc(N)c2cc1OC (centres undefined)
Bacterial Biotransformation: Compound NOT metabolized
//
compound: Nc1nnc(-c2cccc(Cl)c2Cl)c(N)n1
Bacterial Biotransformation: Compound NOT metabolized
//
compound: Cc1cc2c(cc1S(N)(=O)=O)S(=O)(=O)CCC2
Bacterial Biotransformation: Compound NOT metabolized
//
compound: O=C1CC2(CCCC2)CC(=O)N1CCCCN1CCN(c2ncccn2)CC1
Bacterial Biotransformation: Compound NOT metabolized
//
compound: CCOC(=O)C1=C[C@]2(CC)CCCN3CCc4c(n1c1ccccc41)[C@@H]32
Bacterial Biotransformation: Compound NOT metabolized
//
compound: OC(CCN1CCCCC1)(c1ccccc1)C1CC2C=CC1C2 (centres undefined)
Bacterial Biotransformation: Compound NOT metabolized
//
compound: NC(CO)(CO)CO.O=C(c1ccccc1)c1ccc2n1CCC2C(=O)O (centres undefined)
Bacterial Biotransformation: Compound NOT metabolized
//
compound: O=C1NCC2(CCN(CCc3ccccc3)CC2)O1 [FENSPIRIDE]
Bacterial Biotransformation: Compound NOT metabolized
//
compound: C[N+]12CCC(CC1)C(OC(=O)C(O)(c1ccccc1)c1ccccc1)C2.[Br-] (centres undefined) [CLIDINIUM BROMIDE]
Bacterial Biotransformation: Compound NOT metabolized
//
compound: O=C1[C@H](CC[C@H](O)c2ccc(F)cc2)[C@@H](c2ccc(O)cc2)N1c1ccc(F)cc1
Bacterial Biotransformation: Compound NOT metabolized
//
compound: CN(C)C(=O)C(CCN1CCC(O)(c2ccc(Cl)cc2)CC1)(c1ccccc1)c1ccccc1 [LOPERAMIDE]
Bacterial Biotransformation: Compound NOT metabolized
//
compound: Fc1ccc([C@@H]2CCNC[C@H]2COc2ccc3c(c2)OCO3)cc1
Bacterial Biotransformation: Compound metabolized
//
compound: CCCC(C)(COC(N)=O)COC(=O)NC(C)C (centres undefined)
Bacterial Biotransformation: Compound NOT metabolized
//
compound: NS(=O)(=O)c1cc2c(cc1Cl)N=C(CSCc1ccccc1)NS2(=O)=O [BENZTHIAZIDE]
Bacterial Biotransformation: Compound NOT metabolized
//
compound: CN(C)CC(c1ccc(O)cc1)C1(O)CCCCC1.O=C(O)CCC(=O)O (centres undefined) [DESVENLAFAXINE SUCCINATE]
Bacterial Biotransformation: Compound NOT metabolized
//
compound: C#C[C@]1(OC(C)=O)CC[C@H]2[C@@H]3CCC4=CC(=O)CC[C@@H]4[C@H]3CC[C@@]21C [NORETHINDRONE ACETATE]
Bacterial Biotransformation: Compound metabolized
//
compound: CC(=O)OCC(=O)[C@@]12N=C(C)O[C@@H]1C[C@H]1[C@@H]3CCC4=CC(=O)C=C[C@]4(C)[C@H]3[C@@H](O)C[C@@]12C
Bacterial Biotransformation: Compound metabolized
